system: SW-620; assay: NCI tumour cell line growth inhibition, 48 h
Activity calls are given as the source filed them. Rule as the data show it: active = GI50 up to about 1.1 µM and inactive = higher.
value-kind: GI50

COC1O[C@@H]2CCN3C(=O)[C@@H](OC(=O)c4ccc([N+](=O)[O-])cc4)[C@H]1C23 (stereo partly drawn) : > 100 µM (inactive)
CC1(C)Cc2c(cnn2-c2ccc(C(F)(F)F)cc2)-c2[nH]c(-c3ccc(O)cc3)nc21 : 14.5 µM (inactive)
Cc1nc(C(N)=O)c(N)n1CCN1CCN(C(=O)CCCCCCCCCCNC2NC=Nc3[nH]cnc32)CC1 (stereo not drawn) : > 100 µM (inactive)

Query string: Which GI50 is reported for this compound? C[C@H]1COC2(c3ccccc3)CCC(=O)N12 (stereo partly drawn)
Result string: > 100 µM (inactive)

###

tested on: SNB-78; assay: NCI tumour cell line growth inhibition, 48 h
Calls of active or inactive are those of the source. Cut-off read from the data, not from the text of the source: active = GI50 up to about 1.1 µM and inactive = higher.
Bench note: report the call from class 1 = active, class 0 = inactive

Use these answered entries as a reference point.
Cc1c(/C=N/NC(=O)c2ccccc2O)c(=O)n(-c2ccccc2)n1C : class 0
COc1cc(C2[C@H]3C(=O)N(c4ccc(Cc5ccc(N6C(=O)[C@@H]7ON(c8ccccc8)C(c8cc(OC)c(OC)c(OC)c8)[C@@H]7C6=O)cc5)cc4)C(=O)[C@H]3ON2c2ccccc2)cc(OC)c1OC (some centres undefined) : class 0
C=CCNC(=O)/C=C\C(=O)O : class 0

Query string: Please share the test call associated with `COc1cccc([C@@]2(O)c3c(ccc(O)c3OC)[C@H]2OC)c1OC` .
Result string: class 0

Query string: Please share the test call associated with `O=c1[nH]c(C2CCCCC2)nc2cc(Cl)ccc12` .
Result string: class 0

Query string: Please share the test call associated with O=C1NC2C(=O)N(Cc3ccccc3)C(=O)C2N1 (centres undefined) .
Result string: class 0

Query string: Please share the test call associated with `Cc1cnc[nH]c1=O` .
Result string: class 0

Query string: Please share the test call associated with `C=CCn1cc(C(=O)NC(=O)NCCCCCOC(=O)CCCCCCCCCCC(=O)OCCCCCNC(=O)NC(=O)c2cn(CC=C)c(=O)n(C)c2=O)c(=O)n(C)c1=O` .
Result string: class 0

Query string: Please share the test call associated with `COc1ccc2nc3ccccc3c(NCCN(CCCl)CCCl)c2c1` .
Result string: class 1

###

test system: ACHN; experiment: NCI tumour cell line growth inhibition, 48 h
The source made the active and inactive calls. Cut-off read from the data, not from the text of the source: active = GI50 up to about 1.1 µM and inactive = higher.
Bench note: report the call from active, inactive

Use these answered entries as a reference point.
O=C1Nc2ccccc2/C1=C/c1ccccc1 : inactive
C/C1=C\[C@@H](C)C[C@@H](C)OC(=O)[C@@H](C)NC(=O)[C@H](Cc2ccc(O)c(Br)c2)N(C)C(=O)CNC(=O)[C@H](C)C1 : active
C[C@H]1CC[C@H](NC(=O)N(CCCl)N=O)CC1 : inactive
CN(C)CCNS(=O)(=O)N(C)C : inactive

Query string: Please share the test call associated with `O=C1C(NCCN2CCOCC2)=C(Cl)C(=O)c2ncccc21` .
Result string: active

###

test system: NCI/ADR-RES; test: NCI tumour cell line growth inhibition, 48 h
Calls of active or inactive are those of the source. Rule as the data show it: active = GI50 up to about 1.1 µM and inactive = higher.
Bench note: report the call from active, inactive

O=S(=O)(/N=S(/Nc1ccccc1)C(F)(F)Cl)c1ccccc1 (configuration not stated) : inactive
COC12OC3CC4(C)C(=CC3OC(OC(C)C1O)C2O)CCC1C4CCC2(C)C(c3ccc(=O)oc3)CCC12O (configuration not stated) : active
ClCc1nc2cc(Cl)ccc2o1 : inactive
O=C1CC(=O)NC(NN2C(=O)CSC2c2ccc(Cl)c(Cl)c2)=N1 (configuration not stated) : inactive
O=C1CSC2(CC(/C=C/c3cccc([N+](=O)[O-])c3)=NN2c2cccc(S(=O)(=O)O)c2)N1c1nc2ccccc2s1 (configuration not stated) : inactive
COc1ccc(C[C@H]2COC(=O)[C@@H]2Cc2ccc(Br)cc2)cc1OC : inactive

Query string: Please share the test call associated with `O=[N+]([O-])c1cc(Cl)ccc1Sc1ccccc1` .
Result string: inactive

###

system: MOLT-4; assay: NCI tumour cell line growth inhibition, 48 h
Calls of active or inactive are those of the source. Cut-off read from the data, not from the text of the source: active = GI50 up to about 1.1 µM and inactive = higher.
value-kind: GI50

Cn1c(=O)c2nc(/N=N/Nc3nncs3)[nH]c2n(C)c1=O : > 100 µM (inactive)
CC(C)(C)OC(=O)N/N=C(/N)Cc1ccccc1 : > 100 µM (inactive)

Okay, now this molecule:
Query string: Notebook entry, MOLT-4 assay: GI50 of `Cn1c2ncccc2n2c(=O)cc(O)cc12` = ?
Result string: 20.7 µM (inactive)

###

tested on: NCI/ADR-RES; experiment: NCI tumour cell line growth inhibition, 48 h
Calls of active or inactive are those of the source. Cut-off read from the data, not from the text of the source: active = GI50 up to about 1.1 µM and inactive = higher.
Each entry below carries its recorded GI50.

COc1ccccc1N1C(=O)/C(=C\c2cccc(Oc3ccccc3)c2)S(=O)(=O)C1c1ccccc1 (stereo not given) : 2.92 µM (inactive)
COc1ccc2[nH]c(S(=O)(=O)N3CC(CCl)c4ccc(N)cc43)cc2c1 (stereo not given) : 0.0624 µM (active)
NC(=S)NS(=O)(=O)c1ccc(Cl)cc1Cl : > 100 µM (inactive)
CC(=O)Oc1ccc(C2SCc3nc4ccccc4n32)cc1 (stereo not given) : 14.8 µM (inactive)
CC1=CC(=O)C[C@]2(C)[C@@H](O)CC(C(C)CO)C[C@@H]12 (stereo not given in full) : > 100 µM (inactive)
Cc1cc(C)nc(SCC(=O)OC2CC(C)CCC2C(C)C)n1 (stereo not given) : 17 µM (inactive)
O=C(Nc1ccc(Cl)cc1)c1cc(S(=O)(=O)Nc2n[nH]c(=O)n2-c2ccccc2)c(S)cc1Cl : > 100 µM (inactive)
CC1OC(NCCNCCNC2OC(C)C(O)C(O)C2O)C(O)C(O)C1O (stereo not given) : > 100 µM (inactive)
O=C1C(Cl)=C(Nc2ccc(OC(F)(F)F)cc2)C(=O)c2c(O)ccc(O)c21 : 1.74 µM (inactive)

Query string: Which GI50 is reported for this compound? OC1OC(c2ccc[nH]2)C(F)(F)C(F)(F)C1(F)F (stereo not given)
Result string: > 100 µM (inactive)

###

Each entry below carries its recorded GI50.
system: U-251; assay: NCI tumour cell line growth inhibition, 48 h
Active and inactive are the calls of the source. No stated cut-off is given here; in the data, active = GI50 up to about 1.1 µM and inactive = higher.

C=C(CC)C(=O)c1ccc(OCC(=O)O)c(Cl)c1Cl : 16 µM (inactive)
COc1cc(-c2ccc(/N=N/c3c(S(=O)(=O)O)cc4cc(S(=O)(=O)O)cc(N)c4c3O)c(OC)c2)ccc1/N=N/c1c(S(=O)(=O)O)cc2cc(S(=O)(=O)O)cc(N)c2c1O : > 100 µM (inactive)
O=C1[C@@H]2C3SC(c4ccccc43)[C@@H]2C(=O)N1c1ccccc1 : > 66.4 µM (inactive)

Query string: Which GI50 is reported for this molecule? `FC(F)(F)c1ccc(/N=C/C=C(/Nc2ccc(C(F)(F)F)cc2)c2ccc(Cl)cc2)cc1`
Result string: 11.3 µM (inactive)

###

test system: HOP-92; test: NCI tumour cell line growth inhibition, 48 h
The source made the active and inactive calls. Rule as the data show it: active = GI50 up to about 1.1 µM and inactive = higher.
Bench note: report the call from active, inactive

Query string: Please share the test call associated with CN(C)CC1CCCCCCCCCCCCC(CN(C)C)C1=O (configuration not stated) .
Result string: inactive

Query string: Please share the test call associated with `Oc1cc(O)c2c(c1)O[C@H](c1cc(O)c(O)c(O)c1)[C@@H](O)C2` .
Result string: inactive

Query string: Please share the test call associated with CCCC1=C(CC)C(C(=O)Nc2c(C)cccc2C)=NC(S)N1 (configuration not stated) .
Result string: inactive

Query string: Please share the test call associated with `CNC1=CC(=O)C2=C(C1=O)[C@H]1CC[C@]3(C)C(=O)CC[C@H]3[C@@H]1CC2` .
Result string: inactive

Query string: Please share the test call associated with `CCc1cc2c(Nc3ccccc3)c3c(nc2s1)CCCC3` .
Result string: inactive

Query string: Please share the test call associated with CC[C@@H]1/C=C/C=C/C[C@H](C)[C@@H](O)[C@@H](C)C(=O)[C@H](C)[C@@H](O)[C@H](C)C(=O)[C@H](C)[C@@H](O)[C@H](C)/C=C/C(=O)O[C@H]2[C@@H](C)[C@@H](CC1)O[C@@]1(CC[C@@H](C)[C@@H](CC(C)O)O1)[C@@H]2C (some centres not stated) .
Result string: inactive

Query string: Please share the test call associated with CC(=O)/C=C\C1CC2C=CC1C2 (configuration not stated) .
Result string: inactive

###

tested on: SK-OV-3; experiment: NCI tumour cell line growth inhibition, 48 h
Active and inactive are the calls of the source. Cut-off read from the data, not from the text of the source: active = GI50 up to about 1.1 µM and inactive = higher.
Each entry below carries its recorded GI50.

// below: answered compounds
COC(=O)/C=C/N1CC1 : > 10 µM (inactive)
O=S(=O)(NCn1ccc2ccccc21)c1ccccc1 : > 100 µM (inactive)
CSc1nc(NC2OCC(OC(C)=O)C(OC(C)=O)C2OC(C)=O)c(/N=C(\C)C(C)=O)c(=O)n1C (stereo not drawn) : > 100 µM (inactive)
CC(=O)OC1COC(n2c(=S)n(-c3ccccc3)c(=O)c3ccccc32)C(OC(C)=O)C1OC(C)=O (stereo not drawn) : > 100 µM (inactive)
OCC1OC(OCC(O)C(O)C(O)C(/C=N/Nc2ccccc2)=N/Nc2ccccc2)C(O)C(O)C1O (stereo not drawn) : > 100 µM (inactive)
Fc1ccc2c3c([nH]c2c1)CCN(Cc1ccccc1)C3 : 19.2 µM (inactive)

Query string: Which GI50 is reported for this compound? COC(=O)C(=O)C(C(=O)C(=O)Nc1ccccc1C(N)=O)c1nc2ccc([N+](=O)[O-])cc2nc1O (stereo not drawn)
Result string: > 100 µM (inactive)

Query string: Which GI50 is reported for this compound? `O=C1C(NCCN2CCOCC2)=C(Cl)C(=O)c2ncccc21`
Result string: 1.43 µM (inactive)

Query string: Which GI50 is reported for this compound? `CC1=Nc2c(C#N)ncn2N=C(C)C1`
Result string: 49 µM (inactive)

Query string: Which GI50 is reported for this compound? OCCCc1cc(O)c2c(c1)C(CO)C(c1ccc(O)c(O)c1)O2 (stereo not drawn)
Result string: > 100 µM (inactive)

Query string: Which GI50 is reported for this compound? Cc1ccc(C(=O)Nc2ccc(S(=O)(=O)O)c3cc(S(=O)(=O)O)cc(S(=O)(=O)O)c23)cc1NC(=O)c1cccc(NC(=O)Nc2cccc(C(=O)Nc3cc(C(=O)Nc4ccc(S(=O)(=O)O)c5cc(S(=O)(=O)O)cc(S(=O)(=O)O)c45)ccc3C)c2)c1 [SURAMIN]
Result string: > 88.1 µM (inactive)

Query string: Which GI50 is reported for this compound? `C/C=C/c1cc2c(cc1O)CC[C@@H]1[C@@H]2CC[C@]2(C)[C@@H](O)CC[C@@H]12`
Result string: 0.183 µM (active)

Query string: Which GI50 is reported for this compound? `O=C1C(NCCc2ccc(O)c(O)c2)=CC(=O)c2ncccc21`
Result string: 15.7 µM (inactive)
